List of melting point values.

# input What measured melting point goes with COc1ccccc1N1CCN(CCN(C(=O)C2CCCCC2)c2ccccc2OCC(F)(F)F)CC1 ?
# output 110 to 112 °C

# input What measured melting point goes with N#Cc1ccc2c(c1)C(n1ccccc1=O)=CC(CF)(CF)O2 ?
# output 174 to 175 °C

# input What measured melting point goes with CCCCCCc1cc2c(s1)-n1c(C)nnc1CN=C2c1cccc(C)c1 ?
# output 57 to 59 °C

# input What measured melting point goes with CCOC(=O)C(=CNc1ncc(OC)c2ccccc12)C(=O)OCC ?
# output 150 to 153 °C

###

List of melting point values.

Compound	Endpoint value
CON=Cc1ncn2c1[C@@H]1CCN1C(=O)c1c(Cl)cccc1-2	199 to 200 °C
Cc1c(F)c(N2CCNC(C)C2)cc2c1C(=O)CCN2C1CC1 (stereo not given)	98 to 100 °C
C[Si](CCSCCNC(=O)n1cc(F)c(=O)[nH]c1=O)(c1ccccc1)c1ccccc1	119 to 120 °C
O=C(OCC1CCCCO1)c1ccccc1Nc1ccnc2cc(Cl)ccc12 (stereo not given)	93 to 94 °C
CCC1(C)CC(O)C2(C)CCC3c4ccc(OC)cc4CCC3C12 (stereo not given)	133 to 136 °C

# input What measured melting point goes with CC(C)(O)/C=C\C(C)(C)O ?
# output 64 °C

# input What measured melting point goes with CCOC(=O)c1cc2n(C)c3ccc(Cl)cc3c(=O)n2n1 ?
# output 272 to 274 °C

# input What measured melting point goes with COc1ccc2cc(CC(=O)O)ccc2c1 ?
# output 173 to 174 °C

# input What measured melting point goes with O=C(Cc1ccncc1)Nc1cccc(-c2ccnc3c(C(=O)c4cccs4)cnn23)c1 ?
# output 130 to 131 °C

# input What measured melting point goes with CC(=O)Nc1nc(N)nc(-c2ccc(-c3ccccc3)cc2)n1 ?
# output > 260 °C

###

Measurement label: melting point

# count of solved cases: 5
Compound	Endpoint value
O=S(=O)(NCCSc1cc(F)c(OCCO)c(F)c1)c1ccc(Cl)cc1	43.5 to 45 °C
CNS(=O)(=O)c1ccccc1Nc1nc(Nc2ccc3c(c2)COC[C@@H]2CCCN32)ncc1Cl	187 to 188 °C
CC(=O)CN1CCc2c(c(=O)oc3cc(C)c(N)cc23)C1	196 to 198 °C
Cc1nn(-c2ccc(F)cc2)cc1C(=O)Nc1ccc(OCC(C)C)c(C#N)c1	179 to 180 °C
Cc1c(NC(=O)CC(C)(C)C)c(C)c2c(c1-c1ccco1)OC[C@@H]2c1ccc(C(C)C)cc1	214 to 217 °C

# input What measured melting point goes with Clc1cc2nc3c4ccccc4c4ccccc4c3nc2cc1Cl ?
# output 263 to 264 °C

# input What measured melting point goes with COc1cc(Br)cc([N+](=O)[O-])c1OCc1ccccc1 ?
# output 74 to 76 °C

# input What measured melting point goes with COc1ccc(S(=O)(=O)N(CCC(F)=C(F)F)c2ccccc2/C=C/c2ccncc2)cc1 ?
# output 148 to 149 °C

# input What measured melting point goes with CC(C)C(=NSN(C)C(=O)Oc1cccc2c1OC(C)(C)C2)Sc1ccccc1 ?
# output 104 to 106 °C

# input What measured melting point goes with C=CC(C)c1cc(C)c2c(c1O)C(N(C)C=O)C1CCCCC21 (stereo not given) ?
# output 158 to 159 °C

# input What measured melting point goes with O=C(O)c1cccc(CN2CCN(c3ccc(NC(=O)c4ccccc4-c4ccc(C(F)(F)F)cc4)cc3)CC2)c1 ?
# output 225 to 227 °C

# input What measured melting point goes with CCOC(=O)c1cn(C)c2ccsc2c1=O ?
# output 122 to 128 °C

# input What measured melting point goes with C=C(C)C(=O)OCCCCCCOc1ccc(C(=O)Oc2ccc(/C=C/C(=O)OC)cc2OC)cc1 ?
# output 92 to 94 °C

# input What measured melting point goes with Cn1nc(-c2ccc3c(c2)CCNCC3)ccc1=O ?
# output 183 to 185 °C

# input What measured melting point goes with FC(F)(F)Oc1cccc(COc2cccc(-c3nnc(Nc4ccc(Cl)c(Cl)c4)s3)c2)c1 ?
# output 166 to 167 °C

# input What measured melting point goes with O=C(Nc1nc(C(O)C(=O)O)cs1)OCC(Cl)(Cl)Cl (stereo not given) ?
# output 135 to 136 °C

# input What measured melting point goes with COC[C@@H](NC(C)=O)C(=O)NCc1ccc(N=[N+]=[N-])cc1 ?
# output 149 to 150 °C

# input What measured melting point goes with CCOC(=O)C1C=Nc2c(ccc3cccnc23)C1=O (stereo not given) ?
# output 242 to 244 °C

# input What measured melting point goes with COc1cccc(C(=NO)c2ccc(F)cc2F)c1 ?
# output 122 to 127 °C

# input What measured melting point goes with CCCCOC(=O)c1cc(=NS(=O)(=O)c2ccccc2)c2c(Cl)cc(Cl)cc2[nH]1 ?
# output 94 to 95 °C
